Recorded self-aminoacylation by entry
System: biotinyl-Trp-oxazolone
methodSummary: self-aminoacylation, catalytic enhancement (BWO) (fold over background); higher = more active; k-Seq, kA / k0A0; sequences stand for … in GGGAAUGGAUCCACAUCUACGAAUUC…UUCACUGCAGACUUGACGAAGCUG
Fewer inactive variants are shown than the library holds.

sequenceRecord: AUUACCCUUCUCAUCGAGUGA [Fam2.1 aminoacylation ribozyme variant]
self-aminoacylation: 9.57

sequenceRecord: AUUAACCUGGUCAUCCAGUGA [Fam2.1 aminoacylation ribozyme variant]
self-aminoacylation: 5.64

sequenceRecord: AUUAACCAAGGUCAUCGGGUG [Fam2.2 aminoacylation ribozyme variant]
self-aminoacylation: 6.8

sequenceRecord: CUACACUUCAAGCAAUAGGUC [Fam1B.1 aminoacylation ribozyme variant]
self-aminoacylation: 0.506

sequenceRecord: CUACUUCAACCCAUCGGUCUG [Fam1A.1 aminoacylation ribozyme variant]
self-aminoacylation: 0.838

sequenceRecord: ACUCACCUAAGUCAUCGGGUG [Fam2.2 aminoacylation ribozyme variant]
self-aminoacylation: 10.6

sequenceRecord: AAGUUUGCUAAGAGUCGGAAG [Fam3.1 aminoacylation ribozyme variant]
self-aminoacylation: 1.4

sequenceRecord: CCACACAUCAAGCAAUCGGGC [Fam1B.1 aminoacylation ribozyme variant]
self-aminoacylation: 2.1

sequenceRecord: AUUACCGUGGUCAUCGCGUGA [Fam2.1 aminoacylation ribozyme variant]
self-aminoacylation: 22.2

sequenceRecord: AUUCACAUAGGUCUUCGGGUG [Fam2.2 aminoacylation ribozyme variant]
self-aminoacylation: 5.51

sequenceRecord: ACACACUUCAAGAAAUCGGUC [Fam1B.1 aminoacylation ribozyme variant]
self-aminoacylation: 4.86

sequenceRecord: CUACUUCAUACAAUCGUUCUG [Fam1A.1 aminoacylation ribozyme variant]
self-aminoacylation: 0.371

sequenceRecord: AUUGCCCUCGUCAUCGAGUGA [Fam2.1 aminoacylation ribozyme variant]
self-aminoacylation: 3.9

sequenceRecord: AUUCAGCUAUGUCAUCGGGUG [Fam2.2 aminoacylation ribozyme variant]
self-aminoacylation: 3.19

sequenceRecord: AUUAAGCUAGGUCAUCGGGUG [Fam2.2 aminoacylation ribozyme variant]
self-aminoacylation: 4.85

sequenceRecord: AUUCCCCUGGUCAUCGAGUUA [Fam2.1 aminoacylation ribozyme variant]
self-aminoacylation: 1.08

sequenceRecord: AUUACCCUGGUCAACGAGUGG [Fam2.1 aminoacylation ribozyme variant]
self-aminoacylation: 1.78

sequenceRecord: CAACAGUUCAAGCAAUCGGUC [Fam1B.1 aminoacylation ribozyme variant]
self-aminoacylation: 3.42

sequenceRecord: AUUUCCCUGGUCAUCGAGUAA [Fam2.1 aminoacylation ribozyme variant]
self-aminoacylation: 2.37

sequenceRecord: AUUAACCUGGUCAUCGAGUGC [Fam2.1 aminoacylation ribozyme variant]
self-aminoacylation: 0.854

sequenceRecord: AUUACCCGGGCCAUCGAGUGA [Fam2.1 aminoacylation ribozyme variant]
self-aminoacylation: 8.23

sequenceRecord: CUAGUUCAAACAAUCGGCCUG [Fam1A.1 aminoacylation ribozyme variant]
self-aminoacylation: 11.2

sequenceRecord: CAGUUUGCUAAUAGUCGCCAG [Fam3.1 aminoacylation ribozyme variant]
self-aminoacylation: 2.45

sequenceRecord: AAGUUUGCUGAUAGGCGCAAG [Fam3.1 aminoacylation ribozyme variant]
self-aminoacylation: 0.544

sequenceRecord: AUGACCCUGGUCAUCGAGUCA [Fam2.1 aminoacylation ribozyme variant]
self-aminoacylation: 2.12

sequenceRecord: AUUCCCGUGGUCAUCGAGUGA [Fam2.1 aminoacylation ribozyme variant]
self-aminoacylation: 11.3

sequenceRecord: GUUCACCUAGGUCAUCGGCUG [Fam2.2 aminoacylation ribozyme variant]
self-aminoacylation: 1.97

sequenceRecord: AGGUUUGCUAUUAGUCGCAAG [Fam3.1 aminoacylation ribozyme variant]
self-aminoacylation: 1.08

sequenceRecord: AUUCACGUAGCUCAUCGGGUG [Fam2.2 aminoacylation ribozyme variant]
self-aminoacylation: 2.88

sequenceRecord: CCACUUCAAACAUUCGGUCUG [Fam1A.1 aminoacylation ribozyme variant]
self-aminoacylation: 2.73

sequenceRecord: AAGUUUUCUAAUAGUCGCCAG [Fam3.1 aminoacylation ribozyme variant]
self-aminoacylation: 1.91

sequenceRecord: AUUACCCUGGUCACCGAAUGA [Fam2.1 aminoacylation ribozyme variant]
self-aminoacylation: 0.91

sequenceRecord: AUUGCCCUGGUCAUAGAGUGA [Fam2.1 aminoacylation ribozyme variant]
self-aminoacylation: 10.9

sequenceRecord: CUACUUCACACAAUGGGUCUG [Fam1A.1 aminoacylation ribozyme variant]
self-aminoacylation: 0.589

sequenceRecord: AUCACCCUGGUCAUCGCGUGA [Fam2.1 aminoacylation ribozyme variant]
self-aminoacylation: 33.8

Just for reference, the supplement of paper PMC9233669 is where these values come from.
